Where do the numbers come from? From paper PMC8307404.

Biological target: JNK1 (Homo sapiens, UniProt P45983)
Sequence (P45983 whole entry): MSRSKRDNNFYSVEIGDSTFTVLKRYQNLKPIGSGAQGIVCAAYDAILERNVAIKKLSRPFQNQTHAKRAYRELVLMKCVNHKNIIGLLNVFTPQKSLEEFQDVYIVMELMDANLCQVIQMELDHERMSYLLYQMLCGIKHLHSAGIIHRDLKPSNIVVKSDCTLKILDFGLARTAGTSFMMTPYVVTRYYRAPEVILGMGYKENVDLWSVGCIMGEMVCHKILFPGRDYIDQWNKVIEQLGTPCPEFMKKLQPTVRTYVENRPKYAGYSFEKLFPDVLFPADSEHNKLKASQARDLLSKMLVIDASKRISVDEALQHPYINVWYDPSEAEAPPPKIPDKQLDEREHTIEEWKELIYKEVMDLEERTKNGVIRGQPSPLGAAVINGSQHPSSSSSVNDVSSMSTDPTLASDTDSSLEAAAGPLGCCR
Assay: Kinase profiling (radiometric filter-binding)
Assay type: biochemical
Conditions: JNK1, 1 µM inhibitor; read-out: Residual activity, %
Experimental: Kinase selectivity profiling was performed using the commercial service provided by the MRC PPU International Centre for Kinase Profiling (Dundee, UK) using a radiometric filter-binding assay. Kinases used for analysis were of human origin. The ATP concentration applied for inhibition measurements was at or below the ATP KM value of the particular PK. […] Residual activities were expressed as the percentage of retained activity compared to the control without inhibitor.
Square brackets hold non-standard residues; d marks the D form. Peptide text beside a SMILES is read from it. * marks the point of attachment. X3 = O=C(CCCCCNCc1nc2c(sc3cc(Br)cnc32)c(=O)[nH]1)*
assay.endpoint: remaining activity at 1 µM

compound	target.or.system	assay.endpoint	reported.measurement
N=C(N)NCCC[C@@H](NC(=O)CCCCCNCc1nc2c(sc3cc(Br)cnc32)c(=O)[nH]1)C(=O)N[C@H](CCCNC(=N)N)C(=O)N[C@H](CCCNC(=N)N)C(=O)N[C@H](CCCNC(=N)N)C(=O)N[C@H](CCCNC(=N)N)C(=O)N[C@H](CCCNC(=N)N)C(=O)N[C@H](CCCCN)C(N)=O [ARC-3126, BPTP-Ahx-(D-Arg)6-D-Lys-NH2] (X3-[dR][dR][dR][dR][dR][dR][dK]-NH2)	JNK1 (Homo sapiens, UniProt P45983)	remaining activity at 1 µM	116%
N=C(N)NCCC[C@@H](NC(=O)CNC(=O)[C@@H](CCCNC(=N)N)NC(=O)[C@@H](CCCNC(=N)N)NC(=O)Cn1cc(CNCc2nc3c(sc4ccc(Br)cc43)c(=O)[nH]2)nn1)C(=O)N[C@H](CCCCN)C(N)=O	JNK1 (Homo sapiens, UniProt P45983)	remaining activity at 1 µM	115%
N=C(N)NCCC[C@@H](NC(=O)CCCCCNC(=O)Cn1cnc2c(I)c(I)c(I)c(I)c21)C(=O)N[C@H](CCCNC(=N)N)C(=O)N[C@H](CCCNC(=N)N)C(=O)N[C@H](CCCNC(=N)N)C(=O)N[C@H](CCCNC(=N)N)C(=O)N[C@H](CCCNC(=N)N)C(=O)N[C@H](CCCCN)C(N)=O	JNK1 (Homo sapiens, UniProt P45983)	remaining activity at 1 µM	82%
N=C(N)NCCC[C@@H](NC(=O)CNC(=O)[C@@H](CCCNC(=N)N)NC(=O)[C@@H](CCCNC(=N)N)NC(=O)CCCCCCCNCc1nc2c(sc3cc(Br)cnc32)c(=O)[nH]1)C(=O)N[C@H](CCCCN)C(N)=O	JNK1 (Homo sapiens, UniProt P45983)	remaining activity at 1 µM	100%
N=C(N)NCCC[C@@H](NC(=O)CNC(=O)[C@@H](CCCNC(=N)N)NC(=O)[C@@H](CCCNC(=N)N)NC(=O)CCCCCCCNCc1nc2c(sc3ccc(Br)cc32)c(=O)[nH]1)C(=O)N[C@H](CCCCN)C(N)=O	JNK1 (Homo sapiens, UniProt P45983)	remaining activity at 1 µM	112%
